In this section, each of the compounds is paired with its reported viability, T/C.
tested on: 855422-203-R-J1-PDC complex spheroid viability; experiment: Anticancer human tumor 855422-203-R-J1-PDC patient-derived bladder carcinoma cell line growth inhibition [POLQ]; details: second compound 3.16 µM; first compound 0.316 µM; active compounds read low;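 note: spheroids exposed to compounds for seven days before readout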
Field format: number, assumed %, no unit text.

Examples from the recorded data:
[[record]]
compound = "CCc1c2c(nc3ccc(O)cc13)-c1cc3c(c(=O)n1C2)COC(=O)[C@]3(O)CC + COC1C(OC(N)=O)C(O)C(Oc2ccc3c(O)c(NC(=O)c4ccc(O)c(CC=C(C)C)c4)c(=O)oc3c2C)OC1(C)C"
endpointlabel = "viability, T/C"
unitstring = "%"
measurement = 2.7

[[record]]
compound = "O=C(c1cc(Cc2n[nH]c(=O)c3ccccc23)ccc1F)N1CCN(C(=O)C2CC2)CC1 + COC1C(OC(N)=O)C(O)C(Oc2ccc3c(O)c(NC(=O)c4ccc(O)c(CC=C(C)C)c4)c(=O)oc3c2C)OC1(C)C"
endpointlabel = "viability, T/C"
unitstring = "%"
measurement = 106

[[record]]
compound = "CC(C)n1c(=O)n(C)c2cnc3cc(F)c(-c4ccc(OCCCN5CCCCC5)nc4)cc3c21 + COC1C(OC(N)=O)C(O)C(Oc2ccc3c(O)c(NC(=O)c4ccc(O)c(CC=C(C)C)c4)c(=O)oc3c2C)OC1(C)C"
endpointlabel = "viability, T/C"
unitstring = "%"
measurement = 98.2

[[record]]
compound = "C#Cc1c(F)ccc2cc(O)cc(-c3ncc4c(N5CC6CCC(C5)N6)nc(OCC56CCCN5CC(F)C6)nc4c3F)c12 (stereo not given) + COC1C(OC(N)=O)C(O)C(Oc2ccc3c(O)c(NC(=O)c4ccc(O)c(CC=C(C)C)c4)c(=O)oc3c2C)OC1(C)C"
endpointlabel = "viability, T/C"
unitstring = "%"
measurement = 123


Now examine the next entry.
Quick note, viability, T/C for COc1cc2cc(C(=O)CCC(=O)O)sc2cc1OC + COC1C(OC(N)=O)C(O)C(Oc2ccc3c(O)c(NC(=O)c4ccc(O)c(CC=C(C)C)c4)c(=O)oc3c2C)OC1(C)C landed at 110
